All figures here come from paper PMC1277809.

# systemName: T1, LexA (DinR) wild type (Bacillus subtilis, UniProt P31080 1-205)
# T1 sequence: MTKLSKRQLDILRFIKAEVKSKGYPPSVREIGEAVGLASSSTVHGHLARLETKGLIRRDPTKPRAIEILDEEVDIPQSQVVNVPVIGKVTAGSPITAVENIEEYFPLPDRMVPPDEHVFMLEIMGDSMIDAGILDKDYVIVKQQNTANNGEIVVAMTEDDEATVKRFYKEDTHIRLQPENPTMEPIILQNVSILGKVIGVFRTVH
# assayOverview: competition EMSA
recordedMetric: pKi
The meaning of pKi here: minus log10 of the concentration in molar units.

Query :: Quick one: pKi of recA op A6C (dsDNA) DNA 1: GGGGGGCGAATCTGCGTTCGCCCCCC DNA 2: GGGGGGCGAACGCAGATTCGCCCCCC ?
Result :: 7.70
